melting point values, listed per item

Answered examples (5):
Cc1ccc(C)c(OCc2ccccc2C(=O)c2ccon2)c1; 90.5 to 92 °C
Nc1ccccc1-c1cc2ccc(Cl)cc2[nH]c1=O; 155 to 157 °C
Cc1cc(N2CCN(CC3CC3)C2=O)sc1C(=O)NCc1cccnc1; 157 to 159 °C
O=c1cc(-c2ccc(Cl)cc2)oc2ccc(OCCCCCCN3CCC(O)CC3)cc12; 127 to 128 °C
CCn1nc(C(C)C)c2c1C(=O)NCC(c1ccccc1)=N2; 160 °C

Enquiry: Give melting point for the following compound: O=C(Cl)c1c(Oc2ccccc2)cccc1Oc1ccccc1
Return: 72 to 73 °C

Enquiry: Give melting point for the following compound: COc1cc2c(cc1Nc1ncc(Cl)c(Nc3ccccc3S(=O)(=O)N(C)C)n1)CCN(CCS(C)(=O)=O)CC2
Return: 84 to 101 °C

Enquiry: Give melting point for the following compound: O=[N+]([O-])c1ccccc1N1CCN(c2ccccc2)CCN1
Return: 119 to 121 °C

Enquiry: Give melting point for the following compound: O=C(O)COc1cc2c(c(Cl)c1Cl)C(=O)c1ccccc1-2
Return: 305 to 306 °C

Enquiry: Give melting point for the following compound: CN(C)c1cccc(C(=O)Nc2ccc3ccc(Oc4ccccc4)nc3n2)c1
Return: 120 °C

Enquiry: Give melting point for the following compound: CC(C)CCN1C(=O)C2(COc3cc(O)ccc32)c2ccccc21 (stereo unspecified)
Return: 101 to 103 °C

Enquiry: Give melting point for the following compound: N=C(c1cc(Cl)ccc1N)C1CCCCC1
Return: 65 °C

Enquiry: Give melting point for the following compound: COC(=O)CCC(=O)Nc1cccc2c1C(=O)N(C1CCC(=O)NC1=O)C2=O (stereo unspecified)
Return: 224 to 226 °C

Enquiry: Give melting point for the following compound: CC(C)(C)OC(=O)N1CCN(C(=O)c2cc3ccccc3[nH]2)CC1
Return: 213 to 214 °C

====

measurement.type: melting point

Answered examples (4):
CCc1nc2c(N)nc3cc(CCCNS(C)(=O)=O)ccc3c2n1CC1CCOCC1; 168 to 170 °C
O=C(Oc1ccc(-c2cc3ccc(OC(=O)c4ccccc4)cc3s2)cc1)c1ccccc1; 216 to 218 °C
COc1cc(C(=O)c2ncc3ccc(N)cn23)ccc1[N+](=O)[O-]; 252 °C
CC(C)C(=O)Nc1cn(-c2cncc(F)c2)nc1C=O; 140 to 142 °C

Enquiry: Give melting point for the following compound: CC(C)(C)OC(=O)c1nc(-c2ccc([N+](=O)[O-])cc2)[nH]c1-c1ccncc1
Return: > 280 °C

Enquiry: Give melting point for the following compound: Clc1ccc2c(c1)N(c1ncnc3cnccc13)CC2
Return: 194 to 196 °C

Enquiry: Give melting point for the following compound: Cc1nc2cccc3n(CCCNS(=O)(=O)CC(F)(F)F)c(=O)c1n23
Return: 157 to 158 °C

Enquiry: Give melting point for the following compound: CCOC(=O)c1cc(S)n2c(C)nnc2n1
Return: 206 to 208 °C

Enquiry: Give melting point for the following compound: CNC(=O)c1c(C)c([N+](=O)[O-])cc2nc(OC)c(OC)nc12
Return: 205 to 206 °C

Enquiry: Give melting point for the following compound: COC(=O)c1ccc([N+](=O)[O-])cc1C
Return: 73.6 °C

Just for reference, a melting point compilation (Tetko et al.; mined from patent text by program, amines drawn as free bases though some values may be those of a salt) is where these values come from.
